Target: Muscarinic acetylcholine receptor M1 (Rattus norvegicus) (UniProt P08482)
Sequence (P08482 whole entry, looked up): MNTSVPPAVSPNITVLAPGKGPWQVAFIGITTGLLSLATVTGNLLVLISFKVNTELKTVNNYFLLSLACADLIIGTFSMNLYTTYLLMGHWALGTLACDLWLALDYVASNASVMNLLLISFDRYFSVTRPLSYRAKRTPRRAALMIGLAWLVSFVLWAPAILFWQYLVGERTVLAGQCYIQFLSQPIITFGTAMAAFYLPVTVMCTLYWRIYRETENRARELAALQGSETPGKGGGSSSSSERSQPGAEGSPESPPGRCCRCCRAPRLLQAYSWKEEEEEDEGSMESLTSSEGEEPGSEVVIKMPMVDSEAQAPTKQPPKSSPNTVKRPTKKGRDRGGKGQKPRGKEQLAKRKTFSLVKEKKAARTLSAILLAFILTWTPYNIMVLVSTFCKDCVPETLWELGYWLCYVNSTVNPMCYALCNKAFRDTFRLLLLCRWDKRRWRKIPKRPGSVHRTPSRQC
Test: rat M1 positive allosteric modulators, SAR follow-up, selectivity assay for M5 allosteric modulator project, cell-based (AID 2206)
Conditions: CHO-K1 rat M1, Fluo-4 calcium, ACh EC20 potentiation
The source made the active and inactive calls.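 How the source made its calls: active means average EC50 below 10 µM; inactive means average EC50 of 10 µM or more.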
Output constraint: value belongs to yes = active, no = inactive

[
  {
    "Smiles repr": "COc1cccc(CN2C(=O)C(=O)c3cc(OC(F)(F)F)ccc32)c1",
    "Assigned class": "no"
  },
  {
    "Smiles repr": "O=C1C(=O)N(Cc2ccc(Br)cc2)c2c(F)cccc21",
    "Assigned class": "yes"
  },
  {
    "Smiles repr": "O=C1C(=O)N(Cc2ccccc2C(F)(F)F)c2c(F)cccc21",
    "Assigned class": "no"
  },
  {
    "Smiles repr": "O=C1C(=O)N(Cc2ccc(Br)cc2F)c2ccc(OC(F)(F)F)cc21",
    "Assigned class": "no"
  },
  {
    "Smiles repr": "O=C1C(=O)N(Cc2ccc(C(F)(F)F)cc2)c2ccc(OC(F)(F)F)cc21",
    "Assigned class": "yes"
  },
  {
    "Smiles repr": "COc1cccc(CN2C(=O)C(=O)c3c(Cl)ccc(Cl)c32)c1",
    "Assigned class": "no"
  },
  {
    "Smiles repr": "COc1ccc(CN2C(=O)C(=O)c3ccccc32)cc1",
    "Assigned class": "no"
  },
  {
    "Smiles repr": "O=C1C(=O)N(Cc2ccc(OC(F)(F)F)cc2)c2ccc(OC(F)(F)F)cc21",
    "Assigned class": "no"
  }
]

Give the logged outcome of this assay for the following compound: "Cc1ccccc1CN1C(=O)C(=O)c2cc(OC(F)(F)F)ccc21"
no
